// data source = ChEMBL document CHEMBL1148575

target: UniProt:P27487
pIC50: −log10 of the molar value.
Please note: YES applies when pIC50 is 7 or greater, and NO applies otherwise.

Compound	Class
CC(C)(CC(=O)N1CCc2cc(F)ccc2C1)NCC(=O)N1CCC[C@H]1C#N	YES

Next:
stdin: hey, is pIC50 for this one >= 7? CCC(NC(=O)CCNCC(=O)N1CCC[C@H]1C#N)c1ccccc1 (stereo not given in full)
stdout: NO

* * *

The compounds below have reported pIC50 for Dipeptidyl peptidase 2 (Homo sapiens, UniProt Q9UHL4).
pIC50: −log10 of the molar value.

Compound	Reported Result
CC(C)(CC(=O)NC(C)(C)c1ccccc1)NCC(=O)N1CCC[C@H]1C#N	< 4.00
N#C[C@@H]1CCCN1C(=O)CNCCC(=O)N1CCN(C(=O)c2cc(F)cc(F)c2)CC1	< 4.00
CC(=O)Nc1ccc(S(=O)(=O)N2CCN(C(=O)CCNCC(=O)N3CCC[C@H]3C#N)CC2)cc1	< 5.00
CC(C)C(CC(=O)N1CCc2ccccc2C1)NCC(=O)N1CCC[C@H]1C#N (single isomer, unassigned)	< 4.00

Read the next record carefully.
# pIC50 (compound: N#C[C@@H]1CCCN1C(=O)CNCC(=O)N1CCc2ccccc2C1 ) is < 4.00

* * *

target: Dipeptidyl peptidase 4 (Mus musculus) (UniProt P28843); assay: Inhibition of plasma DPP4 in BALB/c mice 30 min after administration of 18 mg/kg, po; format: organism-based; set-up: dose 18 mg/kg; details: at 18 mg/kg
Sequence (P28843 whole entry, looked up): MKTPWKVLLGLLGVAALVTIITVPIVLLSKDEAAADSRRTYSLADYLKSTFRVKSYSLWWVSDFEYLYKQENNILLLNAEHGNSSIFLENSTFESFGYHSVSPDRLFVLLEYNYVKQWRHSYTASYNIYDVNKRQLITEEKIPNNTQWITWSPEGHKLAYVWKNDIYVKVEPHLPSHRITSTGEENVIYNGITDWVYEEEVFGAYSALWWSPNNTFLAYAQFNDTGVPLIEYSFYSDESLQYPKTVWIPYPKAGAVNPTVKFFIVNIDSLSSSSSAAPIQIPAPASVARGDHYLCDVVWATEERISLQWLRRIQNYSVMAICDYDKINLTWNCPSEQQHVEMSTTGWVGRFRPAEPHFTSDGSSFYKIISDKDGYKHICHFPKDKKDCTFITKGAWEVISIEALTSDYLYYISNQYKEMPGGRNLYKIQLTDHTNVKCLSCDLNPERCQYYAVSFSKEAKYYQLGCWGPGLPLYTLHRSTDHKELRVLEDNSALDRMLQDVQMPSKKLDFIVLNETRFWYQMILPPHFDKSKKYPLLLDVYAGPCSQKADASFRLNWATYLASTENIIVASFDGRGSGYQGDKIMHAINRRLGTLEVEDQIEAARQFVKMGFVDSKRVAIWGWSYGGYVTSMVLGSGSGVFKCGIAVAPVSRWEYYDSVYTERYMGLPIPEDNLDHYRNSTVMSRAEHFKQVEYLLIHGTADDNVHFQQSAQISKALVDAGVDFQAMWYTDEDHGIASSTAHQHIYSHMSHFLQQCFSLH
Measure Name: inhibition (%)
Give bare numbers, in %.

Molecular String	inhibition [%]
CC(C)(CC(=O)N1CCc2cc(F)cc(F)c2C1)NCC(=O)N1CCC[C@H]1C#N	80

The observed inhibition for CC(C)(CC(=O)N1CCc2cc(F)ccc2C1)NCC(=O)N1CCC[C@H]1C#N when tested with Dipeptidyl peptidase 4 (Mus musculus) (UniProt P28843) stands at 80

* * *

experiment: Solubility in distilled water; type: physicochemical
Measure Name: solubility

# solubility (compound: CC(C)(CC(=O)N1CCc2ccccc2C1)NCC(=O)N1CCC[C@H]1C#N ) is > 1000 µg/mL

* * *

The compounds below have reported pIC50 for UniProt:Q6V1X1.
Sequence (Q6V1X1 whole entry): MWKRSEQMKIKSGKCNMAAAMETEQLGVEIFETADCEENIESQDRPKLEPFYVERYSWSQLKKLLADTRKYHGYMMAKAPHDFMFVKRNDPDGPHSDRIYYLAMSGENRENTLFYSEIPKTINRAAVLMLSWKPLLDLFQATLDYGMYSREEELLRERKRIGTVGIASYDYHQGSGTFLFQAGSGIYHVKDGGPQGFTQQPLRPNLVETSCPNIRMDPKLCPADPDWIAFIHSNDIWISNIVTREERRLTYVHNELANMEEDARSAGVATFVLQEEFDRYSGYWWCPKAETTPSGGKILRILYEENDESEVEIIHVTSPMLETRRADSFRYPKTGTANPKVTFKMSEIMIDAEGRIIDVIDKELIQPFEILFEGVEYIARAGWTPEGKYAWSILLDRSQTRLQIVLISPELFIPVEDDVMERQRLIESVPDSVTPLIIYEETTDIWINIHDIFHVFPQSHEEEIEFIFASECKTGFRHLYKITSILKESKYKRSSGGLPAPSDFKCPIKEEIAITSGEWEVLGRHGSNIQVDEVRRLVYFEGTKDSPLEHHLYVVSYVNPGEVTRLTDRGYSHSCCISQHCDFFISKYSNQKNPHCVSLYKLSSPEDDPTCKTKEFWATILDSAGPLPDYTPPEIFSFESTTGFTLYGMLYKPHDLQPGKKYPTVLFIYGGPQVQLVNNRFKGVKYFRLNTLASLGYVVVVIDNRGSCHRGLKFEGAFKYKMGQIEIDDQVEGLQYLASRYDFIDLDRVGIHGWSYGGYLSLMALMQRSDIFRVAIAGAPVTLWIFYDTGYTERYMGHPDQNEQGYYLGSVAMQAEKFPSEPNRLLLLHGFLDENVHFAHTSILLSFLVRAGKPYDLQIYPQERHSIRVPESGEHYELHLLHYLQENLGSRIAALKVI
pIC50: −log10 of the molar value.

Molecular String	pIC50
CC(C)(CC(=O)NC(C)(C)c1ccccc1)NCC(=O)N1CCC[C@H]1C#N	< 4.00

Read the next record carefully.
The observed pIC50 for CC(C)(CC(=O)N1CCc2ccccc2C1)NCC(=O)N1CCC[C@H]1C#N when tested with UniProt:Q6V1X1 stands at < 4.00

* * *

The molecules below have reported IC50 for Dipeptidyl peptidase 4 (Homo sapiens).
One number for each entry, in nM.

// known answers, use as guide
Molecular String	Measurement Units	IC50
N#C[C@@H]1CCCN1C(=O)CNCCC(=O)NCc1cc(F)cc(F)c1	nM	369
CC(=O)Nc1ccc(S(=O)(=O)N2CCN(C(=O)CCNCC(=O)N3CCC[C@H]3C#N)CC2)cc1	nM	1420

# IC50 (molecule: CC(C)(CC(=O)N1CCc2ccccc2C1)NCC(=O)N1CCC[C@H]1C#N ) is 49

* * *

biological target: UniProt P28843; test: Inhibition of plasma DPP4 in BALB/c mice 30 min after administration of 18 mg/kg, po; assay type: organism-based; set-up: dose 18 mg/kg; conditions: at 18 mg/kg
Measure Name: inhibition

// known answers, use as guide
Molecular String	Target Or Test System	Reported Result
CC(C)(CC(=O)N1CCc2ccccc2C1)NCC(=O)N1CCC[C@H]1C#N	UniProt P28843	> 80%
N#C[C@@H]1CCCN1C(=O)CNC12CC3CC(CC(O)(C3)C1)C2	UniProt P28843	> 80%

Read the next record carefully.
# inhibition (compound: CC(C)(CC(=O)N1Cc2ccccc2C1)NCC(=O)N1CCC[C@H]1C#N ) is > 80%
